# experiment description: clinical
# settings: both, human, plasma, oral
readout: half-life

chemical_structure=CC[C@H](C)C(=O)N1CCC(NC(=O)Nc2ccc(OC(F)(F)F)c(F)c2)CC1 readout=half-life observed_value="42 to 59 h"

Cited source for all entries: paper PMC7917437
